Assayed Target: MIRO1_(177-591) (human, UniProt Q8IXI2 177-591)
Sequence (Q8IXI2 177-591): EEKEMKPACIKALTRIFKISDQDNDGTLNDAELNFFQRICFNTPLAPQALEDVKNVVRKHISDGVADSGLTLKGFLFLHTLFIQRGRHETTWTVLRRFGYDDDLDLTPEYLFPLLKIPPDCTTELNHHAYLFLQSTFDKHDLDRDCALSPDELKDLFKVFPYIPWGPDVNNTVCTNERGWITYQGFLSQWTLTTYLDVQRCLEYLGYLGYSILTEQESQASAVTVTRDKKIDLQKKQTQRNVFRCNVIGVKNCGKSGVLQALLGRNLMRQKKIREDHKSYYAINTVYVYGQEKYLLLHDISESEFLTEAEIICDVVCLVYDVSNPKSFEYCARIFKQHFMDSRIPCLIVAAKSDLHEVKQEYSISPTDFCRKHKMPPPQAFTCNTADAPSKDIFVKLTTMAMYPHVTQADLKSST
Assay Method Text: ITC
Measured Quantity: Kd (µM)
Field: numeric (µM). Do not append units.

Q: Query Kd for PDITHQKRVFETVRNINQVVKQRSLTPSPMNIPGSNQSSAM [TRAK1_(394-434)]
Result: 4.39
